Data provenance is PubChem BioAssay (NCATS).

assay: Quantitative High-Throughput drug screen in 47 multiple myeloma cell lines against the NCATS MIPE library collection: KMS12PE_JCRB cell viability assay (AID 1918972); settings: KMS12PE myeloma viability, CellTiter-Glo ATP, 48 h; series mostly up to 45.8 µM; note: nearly all actives have a fitted effect of over 30% in size;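 for viability: 100% = DMSO only wells and 0% = wells with media alone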
Inconclusive results are not listed. Active and inactive are the calls of the source. Calls come from the whole dose curve; as a rule, active = well fitted cell-killing curve with a large enough effect; inconclusive = small, poorly fitted or top-dose-only effect, or effect the other way; inactive = no such curve, though single readings can be large or run the other way.
Labels: yes (1) for active, no (0) for inactive

# COMPOUND, CAT
measured = [
    ("CCNC(=O)CCCC=CC[C@@H]1[C@H](C=CC(O)CCc2ccccc2)[C@@H](O)C[C@@H]1O (stereo not given in full)", "no (0)"),
    ("O=C1NC(=O)C(=Cc2ccc(-c3ccc(F)cc3O)o2)S1", "no (0)"),
    ("COC(=O)N1CCN(Cc2cccc(NC(=O)Nc3ccc(C)nc3)c2F)CC1", "no (0)"),
    ("CC(C)(O)CC(=O)NCCn1ccc2ncnc(Nc3ccc(Oc4cccc(C(F)(F)F)c4)c(Cl)c3)c21", "yes (1)"),
    ("CC(C)(C)c1nc(-c2cccc(NS(=O)(=O)c3c(F)cccc3F)c2F)c(-c2ccnc(N)n2)s1", "yes (1)"),
]
